Origin of values: patent US20260242478A1

- system: T1, PSMA Fab (SEQ ID NOs: 19, 20)
- T1 construct: also called Anti-PSMA Fab; 006 PSMA Fab
- assay overview: clonal phage ELISA on captured PSMA Fab, wells pre-incubated with PSMA antigen as competitor
measurement type: Phage binding ELISA signal, Anti-PSMA Fab with PSMA antigen
The response must contain the number and no unit.

Reported Phage binding ELISA signal, Anti-PSMA Fab with PSMA antigen of LYVKCSPEWMCIGF (Tested as crude clonal phage supernatant) [Phage-3542] : 0.0709

Reported Phage binding ELISA signal, Anti-PSMA Fab with PSMA antigen of VERVCVPQWMCSGF (Tested as crude clonal phage supernatant) [Phage-3533] : 0.1

Reported Phage binding ELISA signal, Anti-PSMA Fab with PSMA antigen of DARACVPEWMCYGF (Tested as crude clonal phage supernatant) [Phage-3546] : 0.0805

Reported Phage binding ELISA signal, Anti-PSMA Fab with PSMA antigen of DVRMCVPEWMCSGF (Tested as crude clonal phage supernatant) [Phage-3539] : 0.0753
